Values from patent US20180244611A1

Molecular target: F508delCFTR (Homo sapiens, UniProt P13569, DEL508-508)
Construct: expressed in transfected cells; host or cells: CFBE41o- human lung-derived epithelial cells (CFBE41o-F508delCFTR-HRP), doxycycline-inducible
Sequence (P13569 with tags, fused parts or gaps DEL508-508): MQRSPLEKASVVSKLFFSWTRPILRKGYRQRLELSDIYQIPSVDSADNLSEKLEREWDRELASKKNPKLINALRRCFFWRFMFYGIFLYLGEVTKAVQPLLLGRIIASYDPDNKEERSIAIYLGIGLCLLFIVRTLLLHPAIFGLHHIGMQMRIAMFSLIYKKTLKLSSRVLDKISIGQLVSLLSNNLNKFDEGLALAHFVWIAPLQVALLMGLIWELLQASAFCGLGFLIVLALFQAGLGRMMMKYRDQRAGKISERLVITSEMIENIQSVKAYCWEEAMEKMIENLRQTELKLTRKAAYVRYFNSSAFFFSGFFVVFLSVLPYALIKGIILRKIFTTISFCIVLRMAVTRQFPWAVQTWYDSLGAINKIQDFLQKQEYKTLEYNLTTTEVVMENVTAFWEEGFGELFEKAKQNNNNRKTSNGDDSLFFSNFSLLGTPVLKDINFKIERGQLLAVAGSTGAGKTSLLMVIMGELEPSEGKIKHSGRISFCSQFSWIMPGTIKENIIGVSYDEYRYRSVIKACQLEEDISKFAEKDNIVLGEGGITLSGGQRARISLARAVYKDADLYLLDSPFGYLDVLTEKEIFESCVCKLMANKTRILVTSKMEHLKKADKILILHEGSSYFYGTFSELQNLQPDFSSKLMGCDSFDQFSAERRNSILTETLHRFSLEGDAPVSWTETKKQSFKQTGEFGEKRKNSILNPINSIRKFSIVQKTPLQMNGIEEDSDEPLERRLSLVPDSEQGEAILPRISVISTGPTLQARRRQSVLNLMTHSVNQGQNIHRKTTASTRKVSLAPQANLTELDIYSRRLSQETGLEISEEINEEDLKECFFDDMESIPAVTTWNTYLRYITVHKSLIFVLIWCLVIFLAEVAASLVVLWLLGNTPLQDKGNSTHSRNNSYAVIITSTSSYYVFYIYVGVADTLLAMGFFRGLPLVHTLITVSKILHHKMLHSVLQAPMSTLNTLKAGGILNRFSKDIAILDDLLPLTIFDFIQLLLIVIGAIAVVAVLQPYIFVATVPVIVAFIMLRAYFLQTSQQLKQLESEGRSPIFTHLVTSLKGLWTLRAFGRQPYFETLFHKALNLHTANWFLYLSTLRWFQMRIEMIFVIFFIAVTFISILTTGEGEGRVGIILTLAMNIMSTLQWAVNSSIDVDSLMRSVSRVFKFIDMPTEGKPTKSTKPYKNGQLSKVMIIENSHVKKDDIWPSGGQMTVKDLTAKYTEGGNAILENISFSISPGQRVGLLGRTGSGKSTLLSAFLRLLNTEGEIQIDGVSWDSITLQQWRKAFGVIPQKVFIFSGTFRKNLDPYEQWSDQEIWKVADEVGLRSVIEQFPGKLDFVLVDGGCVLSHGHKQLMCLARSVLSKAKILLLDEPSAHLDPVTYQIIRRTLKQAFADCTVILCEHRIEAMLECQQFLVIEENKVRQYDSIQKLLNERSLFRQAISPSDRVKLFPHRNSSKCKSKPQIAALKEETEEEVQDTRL
Assay: Cell Surface Expression-Horse Radish Peroxidase (CSE-HRP) assay, test compound without co-corrector
Type: cell-based
Conditions: test compound without co-corrector
Procedure: Cell Surface Expression-Horse Radish Peroxidase (CSE-HRP) Assay […] The % activity measured at each of the 8 test concentrations of the test compound added either without or with a co-corrector (2 μM of 3-[(2R,4R)-4-({[1-(2,2-difluoro-1,3-benzodioxol-5-yl)cyclopropyl]carbonyl}amino)-7-methoxy-3,4-dihydro-2H-chromen-2-yl]benzoic acid) was normalized to the on-plate positive control using the following formulae: […]
We begin with a simple list: items and their reported EC50.

// worked examples, EC50 included
• CCC1(C(=O)NS(=O)(=O)c2cccc(F)c2F)CCc2c(Cl)cccc21 (stereo not drawn) = ≥ 10 µM
• CCCCCC(=O)c1ccc(S(=O)(=O)NC(=O)C2CCc3c(OC)cccc32)cc1 (stereo not drawn) = ≥ 10 µM
• COc1cccc2c1CC[C@@]2(C)C(=O)NS(=O)(=O)c1cccc2ccccc12 = 3 to 10 µM

Asked: Tell me measured EC50 for COc1cccc2c1CCC2C(=O)NS(=O)(=O)c1sc(C)nc1C (stereo not drawn) please.
Given back: ≥ 10 µM

Asked: Tell me measured EC50 for C[C@]1(C(=O)NS(=O)(=O)c2cccc3ccccc23)CCc2c1ccc1c2OCO1 please.
Given back: 3 to 10 µM

Asked: Tell me measured EC50 for COc1ccc(C(F)(F)F)c2c1[C@@H](C(=O)NS(=O)(=O)c1cccc3nc(C)ccc13)CC2 please.
Given back: 3 to 10 µM

Asked: Tell me measured EC50 for CCC1(C(=O)NS(=O)(=O)c2ccccc2-c2ccccc2)CCc2c(Cl)cccc21 (stereo not drawn) please.
Given back: < 3 µM

Asked: Tell me measured EC50 for COc1ccc(CC(C)C)c2c1C(C(=O)NS(=O)(=O)c1cccc3ccccc13)CCC2 (stereo not drawn) please.
Given back: < 3 µM

Asked: Tell me measured EC50 for COc1cccc2c1C(C(=O)NS(=O)(=O)c1cccc3ccccc13)C2 (stereo not drawn) please.
Given back: 3 to 10 µM

###

target: F508delCFTR (Homo sapiens, UniProt P13569, DEL508-508); construct: expressed in transfected cells; host or cells: CFBE41o- human lung-derived epithelial cells (CFBE41o-F508delCFTR-HRP), doxycycline-inducible; assay: Cell Surface Expression-Horse Radish Peroxidase (CSE-HRP) assay, test compound with co-corrector; type: cell-based; details: with 2 μM co-corrector
pEC50: −log10 of the molar value.
We begin with a simple list: items and their reported pEC50.

// worked examples, pEC50 included
* COc1cccc2c1CCC2C(=O)NS(=O)(=O)c1c(F)cccc1F (stereo not drawn) | 5.00 to 5.52
* CCC1(C(=O)NS(=O)(=O)c2cccc3nsnc23)CCc2c(Cl)cccc21 (stereo not drawn) | ≤ 5.00

Asked: Tell me measured pEC50 for COc1cccc2c1CCC2C(=O)NS(=O)(=O)c1nnc(NC(C)=O)s1 (stereo not drawn) please.
Given back: ≤ 5.00

Asked: Tell me measured pEC50 for CCCS(=O)(=O)NC(=O)C1CCc2c(Cl)cccc21 (stereo not drawn) please.
Given back: ≤ 5.00

Asked: Tell me measured pEC50 for COCCCS(=O)(=O)NC(=O)C1CCc2c(OC)cccc21 (stereo not drawn) please.
Given back: ≤ 5.00

Asked: Tell me measured pEC50 for COc1cccc2c1CCCC2C(=O)NS(=O)(=O)c1cccc2cccnc12 (stereo not drawn) please.
Given back: 5.00 to 5.52

Asked: Tell me measured pEC50 for Cc1ccccc1S(=O)(=O)NC(=O)[C@@H]1CCCc2ccccc21 please.
Given back: 5.00 to 5.52

Asked: Tell me measured pEC50 for CCC1(C(=O)NS(=O)(=O)c2ccccc2-c2ccccc2)CCc2c(Cl)cccc21 (stereo not drawn) please.
Given back: > 5.52

Asked: Tell me measured pEC50 for CCC1(C(=O)NS(=O)(=O)c2cccc3sccc23)CCc2c(Cl)cccc21 (stereo not drawn) please.
Given back: > 5.52
